Record form. Attribute: Activity. Fill in for each entry.
# Tested on: Tetranychus urticae
# EXPERIMENTAL_DETAILS: Acarcidal activity against Tetranychus urticae larvae at 200 mg/kg
# Type: functional
Answers are plain numbers, in %.

Here is how some compounds turned out for Activity.
O=C(NC(=O)c1c(F)cccc1F)Nc1ccc(CO/N=C(/c2ccc(Cl)cc2)C2CC2)cc1 [FLUCYCLOXURON] | 100
C/C(=N/OCc1ccc(NC(=O)NC(=O)c2c(F)cccc2F)cc1)c1ccc2c(c1)OCO2 | 7
C/C(=N/OCc1ccc(NC(=O)NC(=O)c2c(F)cccc2F)cc1)n1cncn1 | 10
O=C(NC(=O)c1c(F)cccc1F)Nc1ccc(CO/N=C\c2ccc3c(c2)OCO3)cc1 | 10

Please find the next compound below.
Quick note, Activity for `CCS/C(=N/OCc1ccc(NC(=O)NC(=O)c2c(F)cccc2F)cc1)C(C)C` landed at 43
